- target.or.test.system: 4-HPA hydroxylase of K. pneumoniae (Klebsiella oxytoca)
- Construct: expressed in transfected cells; host or cells: E. coli CC118 (K-12) transformed with pG260 = E. coli P260 (CECT 4627)
- Sequence (Q48440 whole entry): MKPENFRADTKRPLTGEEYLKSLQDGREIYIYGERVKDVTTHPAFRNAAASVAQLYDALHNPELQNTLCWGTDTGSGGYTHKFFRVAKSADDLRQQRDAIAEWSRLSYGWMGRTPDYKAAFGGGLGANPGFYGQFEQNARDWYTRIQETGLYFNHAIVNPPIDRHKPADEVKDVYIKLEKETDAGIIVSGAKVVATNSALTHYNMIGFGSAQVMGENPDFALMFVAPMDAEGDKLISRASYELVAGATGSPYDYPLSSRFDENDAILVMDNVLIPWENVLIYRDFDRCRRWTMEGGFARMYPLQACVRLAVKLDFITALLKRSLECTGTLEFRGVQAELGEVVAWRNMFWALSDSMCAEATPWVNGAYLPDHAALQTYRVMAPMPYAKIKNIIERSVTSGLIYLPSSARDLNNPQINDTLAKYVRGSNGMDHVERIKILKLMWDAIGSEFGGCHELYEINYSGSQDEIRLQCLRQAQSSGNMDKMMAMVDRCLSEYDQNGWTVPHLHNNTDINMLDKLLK
- protocol.summary: Hidroxylase activity expressed by E. coli P260 on different aromatic compounds
- Assay type: biochemical
- Set-up: concentration or dose not given beside the values
- reported.conditions: compound as organic substrate of the enzyme expressed by E. coli P260
// n strictly below 30% in % ACTIVITY; y otherwise

Solved cases below.
[[record]]
compound = "N[C@@H](Cc1ccc(O)cc1)C(=O)O [L-Tyr, L-Tyrosine]"
group = "n"

[[record]]
compound = "O=C(O)Cc1ccccc1O [2-HPA, 2-Hydroxyphenylacetate]"
group = "n"

[[record]]
compound = "O=C(O)Cc1cccc(O)c1 [3-HPA]"
group = "y"

[[record]]
compound = "N[C@@H](Cc1ccc(O)c(O)c1)C(=O)O (racemic) [L-Dopa, DL-Dihydroxyphenylalanin]"
group = "n"

[[record]]
compound = "O=C(O)Cc1ccc(O)c(O)c1 [3,4-DHPA, 3,4-dihydroxyphenylacetate]"
group = "y"


Is % ACTIVITY for O=C(O)Cc1ccccc1 [PA, Phenylacetic acid] at or above 30%?
n

Given the entry O=C(O)Cc1ccc(O)cc1 [4-HPA, 4-hydroxyphenylacetate] , answer whether its % ACTIVITY meets or surpasses 30%.
y

Tell me whether % ACTIVITY is at least 30% here: O=C(O)c1ccc(O)cc1 [4-HBA, 4-Hydroxybenzoate]
n
